method.description: Validation screen for small molecules that induce DNA re-replication in SW480 colon adenocarcinoma cells (AID 504364); also: 0% is about no effect
experimental.conditions: DNA re-replication phenotype (high-content imaging); series mostly up to 46.1 µM
Records with an inconclusive call do not appear. Active and inactive are the calls of the source. Calls follow the shape of the dose curve; as a rule, active = well fitted activation curve with a large enough effect; inconclusive = small, poorly fitted or top-dose-only effect; inactive = flat fitted curve, though single readings scatter.
property.measured: outcome

{"columns": ["compound", "outcome"],
 "data": [
  ["O=C(Nc1cc(C(=O)Nc2ccc(S(=O)(=O)O)cc2S(=O)(=O)O)cc(C(=O)Nc2ccc(S(=O)(=O)O)cc2S(=O)(=O)O)c1)Nc1cc(C(=O)Nc2ccc(S(=O)(=O)O)cc2S(=O)(=O)O)cc(C(=O)Nc2ccc(S(=O)(=O)O)cc2S(=O)(=O)O)c1", "inactive"],
  ["CCCCCCCCCCCCC/C=C/[C@@H](O)[C@@H](N)CO", "inactive"],
  ["COc1cc2c(cc1C(F)(F)F)N(C(=O)Nc1cc(F)cc(-c3cccnc3)c1)CC2", "inactive"],
  ["Oc1cc2c(c(Cl)c1O)CCNCC2c1ccccc1 (centres undefined)", "inactive"],
  ["CCCn1c(=O)c2[nH]c(-c3ccc(OCC(=O)Nc4ccc(C#N)cc4)cc3)nc2n(CCC)c1=O", "inactive"]
]}

Incoming: # input compound: `O=C(OCCN1CCCCC1)c1c[nH]c2ccccc12` ; wanted: its outcome
Outgoing: inactive

Incoming: Name the reported outcome value associated with the compound `O=Nc1c(-c2c(O)[nH]c3ccccc23)[nH]c2ccccc12`
Outgoing: inactive

Incoming: outcome for `O=C(O)c1cc(=O)c2ccc(Cl)cc2[nH]1` ?
Outgoing: inactive

Incoming: I would be grateful if you could share the reported outcome for `CN(C)CCCCSC(=N)N` .
Outgoing: inactive

====

method.description: OV-SAHO Cancer Cell Toxicity qHTS against the NCATS CANVASS Library (AID 1347348); also: nearly all actives have a fitted effect of over 55% in size
experimental.conditions: OV-SAHO viability, CellTiter-Glo luminescence, 72 h; series mostly up to 38.3 µM
Results filed as inconclusive are left out. Activity calls are given as the source filed them. Calls follow the shape of the dose curve; as a rule, active = well fitted cell-killing curve with a large enough effect; inconclusive = small, poorly fitted or top-dose-only effect; inactive = flat fitted curve, though single readings scatter.
Write down the outcome that applies. Available outcomes: true for active, false for inactive

These solved cases illustrate the format of a correct answer.
{"columns": ["molecule", "class"],
 "data": [
  ["CO[C@@H]1[C@H](O)[C@@H](C)O[C@@H](OC[C@H]2/C=C/C=C/C(=O)C(C)C[C@H](C)C(O[C@@H]3O[C@H](C)CC4(OC(=O)O[C@@H]4C)C3O)[C@@H](C)/C=C/C(=O)OC2C)[C@@H]1OC (stereo partly specified)", "false"],
  ["O=C(O)[C@@]12CO[C@@]3(O)C4CCN(CC[C@H]31)[C@H]4c1c2[nH]c2ccccc12", "false"],
  ["C=C[C@]1(C)CC[C@@H]([C@H](C)C(=O)/C=C/C(C)C)O1", "false"],
  ["Cc1cc(O)cc2oc(C[C@H](C)O)cc(=O)c12", "false"],
  ["CCC[C@@H](C)/C=C(\\C)[C@H](O)[C@H](C)/C=C/CC[C@@H](O)[C@H](C)[C@H](O)[C@H](C)[C@H](O)[C@H](C)[C@H]1O[C@H]([C@H](C)C(=O)O)CC[C@@H]1C", "true"]
]}

Incoming: Each molecule tested received a call. Report the one for `O=Cc1ccc2n1C[C@@]1(C[C@H](O)[C@H](O)CO1)OC2` .
Outgoing: true

Incoming: Would you mind telling me which call this test gave `C[C@@H](O)[C@H]1OC(=O)C=C2[C@]3(C)[C@H]4[C@H](OC(=O)[C@@]4(C)[C@@H](O)[C@H]4O[C@H]43)[C@H]3O[C@@]231` ?
Outgoing: true

====

method.description: qHTS for Hypoxia signaling pathway (HIF-1) agonists against the NCATS CANVASS Library (AID 1347375); as to activation: 0% is about no effect
experimental.conditions: HRE-bla ME-180 cells, HIF-1 beta-lactamase reporter, 17 h; series mostly up to 38.3 µM
Results filed as inconclusive are left out. Activity calls are given as the source filed them. Calls come from the whole dose curve; as a rule, active = well fitted activation curve with a large enough effect; inconclusive = small, poorly fitted or top-dose-only effect; inactive = flat fitted curve, though single readings scatter. Peptide text beside a SMILES is read from it. * marks the point of attachment. Octanoyl = CCCCCCCC(=O)*
Outcome (select one): class 1 = active, class 0 = inactive

Worked examples follow.
{"columns": ["molecule", "class"],
 "data": [
  ["C/C(=C\\[C@H](C)C(=O)CCCC1CC(=O)NC(=O)C1)C(O)[C@@H](C)[C@H](O)C/C=C/CC/C=C/C(=O)O (stereo not given in full)", "class 0"],
  ["C[C@@H](CCC[C@]1(C)C(=O)C=C[C@]23C[C@H]4C[C@H](O[C@@]4(C)C2)C31)C(=O)N[C@@H](CO)C(=O)O (stereo not given in full)", "class 0"],
  ["C=C(C)[C@@H]1CC[C@]2(C)CC[C@]3(C)[C@H](CC[C@@H]4[C@@]5(C)CC[C@H](O)C(C)(C)[C@@H]5CC[C@]43C)[C@@H]12", "class 0"],
  ["O=C(O)[C@@]12COC3(O)C1CCN1CC[C@H]3[C@@H]1c1c2[nH]c2ccccc12", "class 0"],
  ["Cc1cc(O)cc2oc(C[C@H](C)O)cc(=O)c12", "class 0"]
]}

Incoming: Can you look up the reported call for `C=C1C(=O)O[C@H]2[C@H]1CC/C(CO)=C\CC[C@@]1(C)O[C@@H]21` for me?
Outgoing: class 0

Incoming: Call for entry CCCCCCCC(=O)N[C@@H](CC(C)C)C(=O)N[C@H](C=O)CCC(=O)O (Octanoyl-Leu-Glu-aldehyde) :
Outgoing: class 0

Incoming: GET /call?item= `CS/C=C/C(N)=O` returns the recorded outcome of this test.
Outgoing: class 0

Incoming: Recorded test outcome, item `C[C@@H]1C(=O)[C@]23CC[C@H]1C[C@]21O[C@H]2C(C)(C)C=CC(=O)[C@]23COC1=O`
Outgoing: class 0

Incoming: # outcome recorded in this test, key = CNc1ccc(Cl)cc1C(=O)OC[C@]1(C)[C@H]2CC[C@]3(C)[C@@H](C[C@@H](OC)[C@H](C)[C@H]3C3=C(O)C(=O)OC3O)[C@]2(C)CC[C@H]1O (stereo not given in full)
Outgoing: class 1

Incoming: Dear all, I need the recorded test outcome for `C=C[C@]1(C)CC[C@@H]([C@H](C)C(=O)/C=C/C(C)C)O1` , thank you.
Outgoing: class 0

Incoming: Tell me the assay call for `CO[C@H]1/C=C/CC[C@@H](S[C@@H]2O[C@H](CO)[C@@H](O)[C@H](O)[C@H]2O)CC(=O)O[C@@H](/C(C)=C/[C@H](C)C(=O)CCCC2CC(=O)NC(=O)C2)[C@@H](C)[C@@H]1O` please.
Outgoing: class 0

Incoming: Per the assay record, what outcome was assigned to C=C1[C@H]2CC[C@@]3(C=CC(=O)[C@@](C)(CCC(=O)Nc4c(O)ccc(C(=O)O)c4O)C3C2)[C@H]1O (stereo not given in full) ?
Outgoing: class 0

Incoming: Returns: the outcome recorded for `O=C1c2c(O)cc(O)cc2O[C@@H](c2ccc(O)cc2)[C@@H]1c1c(O)cc(O)c2c(=O)cc(-c3ccc(O)c(O)c3)oc12` in this assay.
Outgoing: class 0

Incoming: Could you please tell me the result logged for `C/C1=C\CC(=O)/C=C/C=C\c2csc(n2)[C@@H](C)NC(=O)C[C@@](S)([C@@H](C)C(=O)O)CC1` in this assay?
Outgoing: class 0

====

method.description: HEK293 24hr Apoptosis Induction qHTS against the NCATS CANVASS Library (AID 1347359); also: 0% is about no effect
experimental.conditions: HEK293 caspase-3/7 activation, Caspase-Glo luminescence; series mostly up to 46.1 µM
Inconclusive results are not listed. The source made the active and inactive calls. Calls come from the whole dose curve; as a rule, active = well fitted activation curve with a large enough effect; inconclusive = small, poorly fitted or top-dose-only effect; inactive = flat fitted curve, though single readings scatter.

{"columns": ["compound", "outcome"],
 "data": [
  ["COc1ccc2cc(NC(=O)C3=NO[C@H]4[C@H](O)C=C[C@@H](Cl)[C@@]4(O)C3)c(=O)oc2c1OC", "inactive"],
  ["C/C(=C\\[C@H](C)C(=O)CCCC1CC(=O)NC(=O)C1)C(O)[C@@H](C)[C@H](O)C/C=C/CC/C=C/C(=O)O (some centres undefined)", "inactive"],
  ["O=C(O)CC1OC(=O)c2c(O)cccc21 (centres undefined)", "inactive"],
  ["C=C(C)[C@@H]1CC[C@]2(C)CC[C@]3(C)[C@H](CC[C@@H]4[C@@]5(C)CC[C@H](O)C(C)(C)[C@@H]5CC[C@]43C)[C@@H]12", "inactive"]
]}

====

method.description: HPAF-II Cancer Cell Toxicity qHTS against the NCATS CANVASS Library (AID 1347346); also: nearly all actives have a fitted effect of over 55% in size; also: potency is read from the fitted curve at half-maximal effect
experimental.conditions: HPAF-II viability, CellTiter-Glo ATP luminescence, 72 h; series mostly up to 38.3 µM
Results filed as inconclusive are left out. Calls of active or inactive are those of the source. The call rests on the fitted dose curve; in most records, active means well fitted cell-killing curve with a large enough effect; inconclusive means small, poorly fitted or top-dose-only effect; inactive means flat fitted curve, though single readings scatter.
property.measured: Potency

Known Potency results, listed for orientation:
{"columns": ["compound", "value.observed"],
 "data": [
  ["O=C(O)CC1OC(=O)c2c(O)cccc21 (stereo not given)", "inactive"],
  ["C/C=C1/CC[C@@H]2c3[nH]c4ccccc4c3CCN2C1", "inactive"],
  ["CC(C)=CCC/C(C)=C/Cc1c(O)c(CC=C(C)C)c(O)c2c(=O)c3cc(O)ccc3oc12", "13.3 µM (active)"],
  ["C[C@@]12C[C@@H](C[C@H]3C(=O)O[C@@H](c4ccoc4)[C@H](OC(=O)c4ccccc4)[C@@H]31)OC2=O", "inactive"]
]}

Please turn your attention to the following entry.
Incoming: Looking for the measured Potency of `C[C@@H](O)[C@H]1OC(=O)C=C2[C@]3(C)[C@H]4[C@H](OC(=O)[C@@]4(C)[C@@H](O)[C@H]4O[C@H]43)[C@H]3O[C@@]231` , can you help?
Outgoing: 3.35 µM (active)
